Data credit: patent US20230293404A1

Assay: Maximum solubility of alkanediols in water (visual assessment)
Format: physicochemical
Details: assessed at ambient temperature after 24 h storage at 5° C.; visual observation
Would you mind telling me the reported Maximum solubility in water of each entry?
Please give a number only; it is taken to be in % by weight.

Query: Any idea what its Maximum solubility in water is? The compound is CCCCCC(O)C(C)O (centres unmarked)
Result: 1.5

Query: Any idea what its Maximum solubility in water is? The compound is CCCCC(O)C(C)O (centres unmarked)
Result: 3.6

Query: Any idea what its Maximum solubility in water is? The compound is CCCCC(O)CO (centres unmarked)
Result: 50

Query: Any idea what its Maximum solubility in water is? The compound is CCCCCCC(O)C(C)O (centres unmarked)
Result: 0.3

Query: Any idea what its Maximum solubility in water is? The compound is CCCCCC(O)CO (centres unmarked)
Result: 2.5

Query: Any idea what its Maximum solubility in water is? The compound is CCCC(O)CO (centres unmarked)
Result: 50

Query: Any idea what its Maximum solubility in water is? The compound is CCCCCCCC(O)CO (centres unmarked)
Result: 0.1

Query: Any idea what its Maximum solubility in water is? The compound is CCCCCCC(O)CO (centres unmarked)
Result: 0.5
